Data origin, for the record: patent EP0276057B1

- TESTED_SYSTEM: UniProt P08588
- Sequence (P08588 whole entry): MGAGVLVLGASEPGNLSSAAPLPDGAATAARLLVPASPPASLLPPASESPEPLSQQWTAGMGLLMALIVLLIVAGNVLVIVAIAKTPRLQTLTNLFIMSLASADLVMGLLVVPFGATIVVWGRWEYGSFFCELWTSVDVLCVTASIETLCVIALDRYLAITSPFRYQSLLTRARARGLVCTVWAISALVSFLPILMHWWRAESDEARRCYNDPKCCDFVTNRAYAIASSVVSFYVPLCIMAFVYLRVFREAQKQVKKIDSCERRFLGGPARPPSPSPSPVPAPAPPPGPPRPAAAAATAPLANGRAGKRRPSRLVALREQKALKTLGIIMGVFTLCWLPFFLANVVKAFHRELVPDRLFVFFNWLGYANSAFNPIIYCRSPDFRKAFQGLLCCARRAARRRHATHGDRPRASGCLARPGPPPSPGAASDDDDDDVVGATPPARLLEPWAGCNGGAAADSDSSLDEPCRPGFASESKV
- EXPERIMENT_SUMMARY: Block of ligand binding to β-adrenergic receptor, ß1
- TEST_CONDITIONS: at 10,000 nM; 50% blockade not achieved at reasonable concentrations; read-out: % blocked at nM concentration shown ß1
TEST_READOUT: inhibition at 10 µM (%)

# RECORD_SMILES, inhibition at 10 µM / %
records = [
    ("CCN1CCN(c2nc(C)nc3c2SCCC3)CC1", 3),
    ("Cc1nc2c(c(N3CCN(Cc4ccccc4)CC3)n1)SCCC2", 0),
]

[a] Cc1nc2c(c(N3CCN(C4CC4)CC3)n1)SCCC2
[b] Cc1nc2c(c(N3CCN(C)CC3)n1)CSC2
Quick one: lower inhibition at 10 µM, a or b ? To answer, give the label that identifies your chosen option.
a
